Target: SULT1B1 (Homo sapiens, UniProt O43704)
Construct: recombinant, purchased from BD Gentest
Sequence (O43704 whole entry): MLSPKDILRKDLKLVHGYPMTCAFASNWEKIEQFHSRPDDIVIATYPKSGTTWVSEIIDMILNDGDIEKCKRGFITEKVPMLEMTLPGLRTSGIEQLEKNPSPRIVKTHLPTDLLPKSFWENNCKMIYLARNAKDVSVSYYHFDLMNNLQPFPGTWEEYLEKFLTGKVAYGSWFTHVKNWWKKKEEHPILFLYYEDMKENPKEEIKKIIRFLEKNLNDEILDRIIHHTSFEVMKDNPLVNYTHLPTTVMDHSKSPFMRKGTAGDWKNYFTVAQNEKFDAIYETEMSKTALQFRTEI
Experiment: inhibition of 4-nitrophenol sulfation, UPLC-UV
From the text: inhibition of 4-nitrophenol sulfation, UPLC-UV on SULT1B1
For each record, check the reported IC50: if it is below 10 µM write met, else write not met.

1) CCCCOC(=O)c1ccccc1C(=O)O = met
2) CCCCC(CC)COC(=O)c1ccccc1C(=O)O (centres unmarked) = not met
3) CCCCCCOC(=O)c1ccccc1C(=O)O = not met
4) CCCCCCCCOC(=O)c1ccccc1C(=O)O = met
5) O=C(O)c1ccccc1C(=O)OC1CCCCC1 = not met
